Details: 298.15 K; 101.33 kPa; Liquid
MEASURED_METRIC: mass density (kg/m3)
Write down the numeric answer in kg/m3 and omit the unit.

Guide cases for mass density, answers given:
CCC(C)CO (centres undefined) [2-methyl-1-butanol] = 814.87
CCCCCO [pentan-1-ol] = 810.96
CC(C)CO [2-methyl-1-propanol] = 797.84

We now examine a further molecule.
Prompt: I am curious: what mass density value has been reported for CC(C)CCO [3-methylbutan-1-ol] ?
Response: 806.78

###

Conditions: Liquid; Ebulliometric method (Recirculating still)
Measured Normal boiling temperature of individual entries
Write down the numeric answer in °C and omit the unit.

Guide cases for Normal boiling temperature, answers given:
CCC(C)CO (centres undefined) = 128.78
CC(C)CCO = 131.12
CC(C)CO = 108

Prompt: I am curious: what Normal boiling temperature value has been reported for `CCCCCO` ?
Response: 137.70
